Target Entity: Recombinant JAK3 (Homo sapiens)
Construct: purchased Carna Biosciences
Sequence (P52333 whole entry): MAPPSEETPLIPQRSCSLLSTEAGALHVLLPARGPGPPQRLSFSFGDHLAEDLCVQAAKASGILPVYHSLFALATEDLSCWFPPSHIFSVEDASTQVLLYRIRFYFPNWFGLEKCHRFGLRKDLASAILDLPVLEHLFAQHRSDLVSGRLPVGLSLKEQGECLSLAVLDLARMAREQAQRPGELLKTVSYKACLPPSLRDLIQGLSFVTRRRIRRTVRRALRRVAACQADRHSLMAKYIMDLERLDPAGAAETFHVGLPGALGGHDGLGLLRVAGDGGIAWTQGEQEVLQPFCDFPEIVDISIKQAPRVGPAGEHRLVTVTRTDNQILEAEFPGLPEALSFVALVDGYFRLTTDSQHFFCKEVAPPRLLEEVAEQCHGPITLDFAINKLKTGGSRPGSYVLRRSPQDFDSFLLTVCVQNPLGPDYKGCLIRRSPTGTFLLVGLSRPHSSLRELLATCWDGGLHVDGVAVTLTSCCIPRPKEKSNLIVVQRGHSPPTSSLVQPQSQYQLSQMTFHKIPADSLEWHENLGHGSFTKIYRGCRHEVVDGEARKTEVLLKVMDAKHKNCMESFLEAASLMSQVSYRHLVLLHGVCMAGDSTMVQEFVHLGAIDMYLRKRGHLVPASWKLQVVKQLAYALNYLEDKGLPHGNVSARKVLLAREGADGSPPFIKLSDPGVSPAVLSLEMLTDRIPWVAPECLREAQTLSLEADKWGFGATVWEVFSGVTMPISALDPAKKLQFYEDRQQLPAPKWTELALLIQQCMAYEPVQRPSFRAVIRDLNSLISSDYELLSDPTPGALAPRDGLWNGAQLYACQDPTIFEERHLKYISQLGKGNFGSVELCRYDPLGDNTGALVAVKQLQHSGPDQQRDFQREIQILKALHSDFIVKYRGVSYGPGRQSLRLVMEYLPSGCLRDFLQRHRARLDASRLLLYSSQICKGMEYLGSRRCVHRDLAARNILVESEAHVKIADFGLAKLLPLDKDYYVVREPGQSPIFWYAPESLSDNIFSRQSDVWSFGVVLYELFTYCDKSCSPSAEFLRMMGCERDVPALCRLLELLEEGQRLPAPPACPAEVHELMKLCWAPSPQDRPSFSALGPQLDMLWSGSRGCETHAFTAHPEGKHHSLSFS
Assay Text: JAK biochemical assay (LANCE Ultra TR-FRET), JAK3
Conditions: recombinant JAK3, TR-FRET; read-out: Biochemical Assay (μM) JAK3
Assign IC50 to each entry below.

Req: Consider the compound shown here: Cn1c(=O)[nH]c2nccc(-c3cnn(C(=O)NCC(F)(F)F)c3)c21 What is its recorded IC50?
Resp: > 10 µM

Req: Consider the compound shown here: CN(C)C(c1ccc(-n2cc(-c3ccnc4[nH]cnc34)cn2)nc1)C(F)(F)F (stereo not shown) What is its recorded IC50?
Resp: > 0.1 µM

Req: Consider the compound shown here: CC(C)NC(=O)CC[C@@H](c1ccc(-n2cc(-c3ccnc4[nH]cnc34)cn2)nc1)C(F)(F)F What is its recorded IC50?
Resp: < 0.1 µM

Req: Consider the compound shown here: CC(CC#N)NC(=O)n1cc(-c2ccnc3[nH]c(=O)[nH]c23)cn1 (stereo not shown) [Example 1052] What is its recorded IC50?
Resp: > 0.5 µM

Req: Consider the compound shown here: N#CC1CCCCC1NC(=O)n1cc(-c2ccnc3[nH]cnc23)cn1 (stereo not shown) What is its recorded IC50?
Resp: > 0.5 µM

Req: Consider the compound shown here: O=C(NCC(F)(F)F)n1cc(-c2ccnc3[nH]c(-c4ccccc4)nc23)cn1 What is its recorded IC50?
Resp: < 0.5 µM

Req: Consider the compound shown here: N#CCCC1CCN(C(=O)n2cc(-c3ccnc4[nH]c(=O)[nH]c34)cn2)C1 (stereo not shown) What is its recorded IC50?
Resp: > 1 µM

Req: Consider the compound shown here: CC(C)(C#N)NC(=O)n1cc(-c2ccnc3[nH]c(=O)[nH]c23)cn1 What is its recorded IC50?
Resp: > 1 µM

Req: Consider the compound shown here: COC(CCS(C)(=O)=O)c1ccc(-n2cc(-c3ccnc4[nH]cnc34)cn2)nc1 (stereo not shown) What is its recorded IC50?
Resp: > 0.5 µM

Req: Consider the compound shown here: CC(C)NCC[C@@H](c1ccc(-n2cc(-c3ccnc4[nH]cnc34)cn2)nc1)C(F)(F)F What is its recorded IC50?
Resp: 0.005 µM

Req: Consider the compound shown here: N#CC1CCN(C(=O)n2cc(-c3ccnc4[nH]cnc34)cn2)C1 (stereo not shown) What is its recorded IC50?
Resp: > 1 µM

Req: Consider the compound shown here: CS(=O)(=O)CC(Cc1ccc(-n2cc(-c3ccnc4[nH]cnc34)cn2)nc1)C(F)(F)F (stereo not shown) What is its recorded IC50?
Resp: > 0.5 µM

Req: Consider the compound shown here: CS(=O)(=O)NC(c1ccc(-n2cc(-c3ccnc4[nH]cnc34)cn2)nc1)C(F)(F)F (stereo not shown) What is its recorded IC50?
Resp: < 0.1 µM

Req: Consider the compound shown here: CS(=O)(=O)N1CC(C(C#N)c2ccc(-n3cc(-c4ccnc5[nH]cnc45)cn3)nc2)C1 (stereo not shown) What is its recorded IC50?
Resp: > 0.5 µM

Req: Consider the compound shown here: CC(NC(=O)Nc1ccc(-c2ccnc3[nH]c(=O)[nH]c23)cc1)C(F)(F)F (stereo not shown) What is its recorded IC50?
Resp: < 0.5 µM

Req: Consider the compound shown here: CNC(=O)N1CC(C(O)(c2ccc(-n3cc(-c4ccnc5[nH]cnc45)cn3)nc2)C(F)(F)F)C1 (stereo not shown) What is its recorded IC50?
Resp: 0.006 µM
